pIC50: −log10 of the molar value.
So I've got pIC50 readings for PIK3CD (Human), take a look.

Use these answered entries as a reference point.
• COCCCNC(=O)Nc1ccc(-c2nc3c(c(N4CCOC[C@@H]4C)n2)CN(C)C3)cc1 = < 5.00
• C[C@H]1COCCN1c1nc(-c2ccc(NC(=O)NCCN(C)C)cc2)nc2c1CN(C)C2 = 6.00 to 7.00

Inquiry: Find pIC50 (PIK3CD (Human)) for the entry COC(=O)N1Cc2nc(-c3ccc(NC(=O)NCCF)cc3F)nc(N3CCOCC3)c2C1
Reply text: < 5.00

----------
- measured on: UniProt:P42338
- Sequence (P42338 whole entry, looked up): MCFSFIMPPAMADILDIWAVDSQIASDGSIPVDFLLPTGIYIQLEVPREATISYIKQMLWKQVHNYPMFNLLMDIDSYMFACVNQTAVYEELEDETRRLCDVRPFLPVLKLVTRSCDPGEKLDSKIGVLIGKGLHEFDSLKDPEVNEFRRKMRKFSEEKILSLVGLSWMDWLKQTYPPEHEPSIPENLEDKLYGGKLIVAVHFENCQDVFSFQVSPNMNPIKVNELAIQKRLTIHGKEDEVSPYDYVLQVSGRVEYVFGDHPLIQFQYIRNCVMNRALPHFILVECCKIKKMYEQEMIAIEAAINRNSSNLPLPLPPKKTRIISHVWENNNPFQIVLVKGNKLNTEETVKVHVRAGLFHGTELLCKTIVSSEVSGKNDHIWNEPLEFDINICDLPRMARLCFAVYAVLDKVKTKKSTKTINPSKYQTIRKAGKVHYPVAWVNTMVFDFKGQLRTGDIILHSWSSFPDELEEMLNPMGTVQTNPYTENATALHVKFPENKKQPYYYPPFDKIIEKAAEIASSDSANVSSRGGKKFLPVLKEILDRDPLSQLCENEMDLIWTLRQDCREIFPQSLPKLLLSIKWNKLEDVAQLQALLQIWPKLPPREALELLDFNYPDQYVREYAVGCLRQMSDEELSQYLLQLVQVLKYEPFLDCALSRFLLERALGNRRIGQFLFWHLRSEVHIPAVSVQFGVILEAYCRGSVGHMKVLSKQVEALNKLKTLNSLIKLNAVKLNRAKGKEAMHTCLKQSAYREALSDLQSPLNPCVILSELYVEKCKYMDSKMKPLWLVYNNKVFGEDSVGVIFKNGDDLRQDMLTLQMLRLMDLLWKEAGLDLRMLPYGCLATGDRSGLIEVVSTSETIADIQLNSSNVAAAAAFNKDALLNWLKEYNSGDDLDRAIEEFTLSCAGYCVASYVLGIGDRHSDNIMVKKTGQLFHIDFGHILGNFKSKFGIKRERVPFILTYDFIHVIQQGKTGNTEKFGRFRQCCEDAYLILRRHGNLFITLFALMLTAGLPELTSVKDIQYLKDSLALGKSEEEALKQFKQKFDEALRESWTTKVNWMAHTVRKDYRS
pIC50: −log10 of the molar value.
As shown below, each of these compounds has a reported pIC50 value.

- C[C@H]1COCCN1c1nc(-c2ccc(NC(=O)NCCN(C)C)cc2)nc2c1CN(C)C2: 6.00 to 7.00

Inquiry: Find pIC50 (UniProt:P42338) for the entry COC(=O)N1Cc2nc(-c3ccc(NC(=O)NCCF)cc3F)nc(N3CCOCC3)c2C1
Reply text: < 5.00
